B1: Double-stranded RNA-binding protein Staufen homolog 1, residues 183 to 249; numbered along this chain, O95793 (parent)
chain: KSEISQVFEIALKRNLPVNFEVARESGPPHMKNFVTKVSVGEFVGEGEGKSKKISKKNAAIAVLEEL

# Variants of: B1
# testDetails: abundance fitness (aPCA) (normalised: wild type 0, dead -1); higher = more abundant; growth selection in yeast, the domain comes from the species named
# measurementParameters: Homo sapiens
Each record here notes measured abundance fitness.

N15Q :: -0.144
T36W :: -1.12
V63C :: -0.233

Note to self: abundance fitness recorded for `P28D` was -0.167

Note to self: abundance fitness recorded for `V22W` was -0.36

Note to self: abundance fitness recorded for `G49H` was -0.53
